assay-info: Inhibition of NF-kappaB pathway in human MCF7 cells assessed as reduction in TNFalpha level by RT-PCR analysis
assay-endpoint: IC50 (µM)
Record the value in µM, omitting the unit from your answer.

Quick check: IC50 of CCOC(=O)/C=C/C(=O)NCCOc1ccc(C(=O)c2c(-c3ccc(O)cc3)sc3cc(O)ccc23)cc1 ?
4

* * *

Tested on: MCF7
assay-info: Anti-clonogenic activity in human MCF7 cells assessed as reduction of colony formation incubated for 2 weeks by crystal violet staining based assay
condition-description: MCF7, 336 h
assay-endpoint: pIC50
pIC50 (log units): -log10 of the concentration in mol/L.

Which pIC50 is reported with MCF7 for this entry: CCOC(=O)/C=C/C(=O)NCCOc1ccc(C(=O)c2c(-c3ccc(O)cc3)sc3cc(O)ccc23)cc1 ?
5.70

Ref: ChEMBL document CHEMBL5550117
